Target: HUNK (human) (UniProt P57058)
Sequence (P57058 whole entry, looked up): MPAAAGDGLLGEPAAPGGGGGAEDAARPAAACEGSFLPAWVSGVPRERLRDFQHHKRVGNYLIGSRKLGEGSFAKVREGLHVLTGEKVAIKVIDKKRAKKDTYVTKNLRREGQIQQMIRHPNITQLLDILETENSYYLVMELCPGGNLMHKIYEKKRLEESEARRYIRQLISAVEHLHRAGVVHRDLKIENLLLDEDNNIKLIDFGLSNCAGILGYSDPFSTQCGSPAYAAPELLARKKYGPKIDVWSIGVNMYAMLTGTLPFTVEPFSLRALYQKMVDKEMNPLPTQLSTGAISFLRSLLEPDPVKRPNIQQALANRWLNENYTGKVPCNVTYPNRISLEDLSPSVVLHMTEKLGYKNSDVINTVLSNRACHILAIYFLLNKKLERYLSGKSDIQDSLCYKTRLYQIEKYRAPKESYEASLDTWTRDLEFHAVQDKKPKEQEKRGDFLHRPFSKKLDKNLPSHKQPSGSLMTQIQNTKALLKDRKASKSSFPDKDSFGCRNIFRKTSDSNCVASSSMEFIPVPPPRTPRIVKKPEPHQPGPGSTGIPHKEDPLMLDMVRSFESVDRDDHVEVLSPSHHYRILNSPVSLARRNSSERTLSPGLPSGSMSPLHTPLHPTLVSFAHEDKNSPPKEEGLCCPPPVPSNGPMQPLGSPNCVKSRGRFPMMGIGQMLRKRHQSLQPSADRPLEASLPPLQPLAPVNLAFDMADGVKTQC
Assay: KINOMEscan competition binding
Settings: compound 10.0 µM
measurement-type: kinase still bound, per cent of control (%)

- Cn1cc(C2=C(c3ccc(Cl)cc3Cl)C(=O)NC2=O)c2ccccc21: 100
- Cc1cnc(-c2cnc(NCCNc3ccc(C#N)cn3)nc2-c2ccc(Cl)cc2Cl)[nH]1: 100
- O=C1Nc2cc(Br)ccc2/C1=C1/Nc2ccccc2/C1=N\O: 79
- COc1ccc(CNC(=O)Nc2ncc([N+](=O)[O-])s2)cc1: 81

---

Test system: ABL1 (human), P00519 [E255K]
Sequence (P00519 whole entry E255K, looked up): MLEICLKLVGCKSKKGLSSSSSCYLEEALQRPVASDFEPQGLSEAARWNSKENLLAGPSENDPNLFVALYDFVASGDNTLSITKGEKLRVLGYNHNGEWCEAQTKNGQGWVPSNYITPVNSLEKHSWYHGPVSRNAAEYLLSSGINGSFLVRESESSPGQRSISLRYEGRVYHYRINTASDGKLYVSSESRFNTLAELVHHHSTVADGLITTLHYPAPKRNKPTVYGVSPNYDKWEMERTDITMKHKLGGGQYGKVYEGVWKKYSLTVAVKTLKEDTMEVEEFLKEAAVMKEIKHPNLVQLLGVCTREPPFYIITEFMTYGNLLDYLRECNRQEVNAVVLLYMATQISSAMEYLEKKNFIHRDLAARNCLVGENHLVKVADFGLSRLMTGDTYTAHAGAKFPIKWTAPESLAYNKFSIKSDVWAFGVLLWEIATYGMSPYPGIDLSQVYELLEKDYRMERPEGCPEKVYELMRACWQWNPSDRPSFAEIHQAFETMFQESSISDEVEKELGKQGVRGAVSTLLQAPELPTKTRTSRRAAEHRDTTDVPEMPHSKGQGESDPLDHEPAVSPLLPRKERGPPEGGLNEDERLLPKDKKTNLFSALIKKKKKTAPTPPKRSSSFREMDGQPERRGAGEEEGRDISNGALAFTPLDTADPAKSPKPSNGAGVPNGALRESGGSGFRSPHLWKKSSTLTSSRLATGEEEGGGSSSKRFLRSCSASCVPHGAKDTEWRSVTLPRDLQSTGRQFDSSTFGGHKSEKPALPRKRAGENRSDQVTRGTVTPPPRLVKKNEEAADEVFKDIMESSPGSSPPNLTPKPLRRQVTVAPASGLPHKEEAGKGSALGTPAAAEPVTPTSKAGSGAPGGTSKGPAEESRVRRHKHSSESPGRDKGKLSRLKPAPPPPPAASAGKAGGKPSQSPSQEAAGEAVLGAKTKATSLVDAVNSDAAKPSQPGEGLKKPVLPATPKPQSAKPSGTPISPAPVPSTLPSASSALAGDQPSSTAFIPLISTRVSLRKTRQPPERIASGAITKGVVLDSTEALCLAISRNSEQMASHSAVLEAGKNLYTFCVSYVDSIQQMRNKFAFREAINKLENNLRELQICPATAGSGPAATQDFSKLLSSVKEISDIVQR
Test: KINOMEscan competition binding
Details: compound 10.0 µM
measurement-type: kinase still bound, per cent of control (%)

The following molecules have reported results that may help.
• COc1ccc(CNC(=O)Nc2ncc([N+](=O)[O-])s2)cc1 = 100
• Cc1cnc(-c2cnc(NCCNc3ccc(C#N)cn3)nc2-c2ccc(Cl)cc2Cl)[nH]1 = 100

(P) Cn1cc(C2=C(c3ccc(Cl)cc3Cl)C(=O)NC2=O)c2ccccc21
(Q) O=C1Nc2cc(Br)ccc2/C1=C1/Nc2ccccc2/C1=N\O
I need your help: which of the pair P , Q has higher kinase still bound, per cent of control? Please respond with the label that marks your chosen entry.
P
(P: 100%, Q: 11%)

---

Biological target: FLT1 (human)
Experiment: KINOMEscan competition binding
Settings: compound 10.0 µM
measurement-type: kinase still bound, per cent of control (%)

The following compounds have reported results that may help.
- COc1ccc(CNC(=O)Nc2ncc([N+](=O)[O-])s2)cc1: 57
- Cn1cc(C2=C(c3ccc(Cl)cc3Cl)C(=O)NC2=O)c2ccccc21: 100

(I) Cc1cnc(-c2cnc(NCCNc3ccc(C#N)cn3)nc2-c2ccc(Cl)cc2Cl)[nH]1
(II) O=C1Nc2cc(Br)ccc2/C1=C1/Nc2ccccc2/C1=N\O
I need your help: which of the pair I , II has higher kinase still bound, per cent of control? Please respond with the label that marks your chosen entry.
I
(I: 79%, II: 1.3%)

---

Molecular target: STK16 (human)
Test: KINOMEscan competition binding
Settings: compound 10.0 µM
measurement-type: kinase still bound, per cent of control (%)

The following compounds have reported results that may help.
• COc1ccc(CNC(=O)Nc2ncc([N+](=O)[O-])s2)cc1 = 28
• Cn1cc(C2=C(c3ccc(Cl)cc3Cl)C(=O)NC2=O)c2ccccc21 = 29

(a) O=C1Nc2cc(Br)ccc2/C1=C1/Nc2ccccc2/C1=N\O
(b) Cc1cnc(-c2cnc(NCCNc3ccc(C#N)cn3)nc2-c2ccc(Cl)cc2Cl)[nH]1
Input pair: a , b . Output: entry with lower kinase still bound, per cent of control. Please respond with the label that marks your chosen entry.
a
(a: 0.8%, b: 91%)

---

Target: SRMS (human)
Assay: KINOMEscan competition binding
Conditions: compound 10.0 µM
measurement-type: kinase still bound, per cent of control (%)

The following molecules have reported results that may help.
• Cc1cnc(-c2cnc(NCCNc3ccc(C#N)cn3)nc2-c2ccc(Cl)cc2Cl)[nH]1 = 95
• COc1ccc(CNC(=O)Nc2ncc([N+](=O)[O-])s2)cc1 = 75

(1) O=C1Nc2cc(Br)ccc2/C1=C1/Nc2ccccc2/C1=N\O
(2) Cn1cc(C2=C(c3ccc(Cl)cc3Cl)C(=O)NC2=O)c2ccccc21
Input pair: 1 , 2 . Output: entry with lower kinase still bound, per cent of control. Please respond with the label that marks your chosen entry.
1
(1: 13%, 2: 86%)

---

Target: CDKL5 (human) (UniProt O76039)
Sequence (O76039 whole entry, looked up): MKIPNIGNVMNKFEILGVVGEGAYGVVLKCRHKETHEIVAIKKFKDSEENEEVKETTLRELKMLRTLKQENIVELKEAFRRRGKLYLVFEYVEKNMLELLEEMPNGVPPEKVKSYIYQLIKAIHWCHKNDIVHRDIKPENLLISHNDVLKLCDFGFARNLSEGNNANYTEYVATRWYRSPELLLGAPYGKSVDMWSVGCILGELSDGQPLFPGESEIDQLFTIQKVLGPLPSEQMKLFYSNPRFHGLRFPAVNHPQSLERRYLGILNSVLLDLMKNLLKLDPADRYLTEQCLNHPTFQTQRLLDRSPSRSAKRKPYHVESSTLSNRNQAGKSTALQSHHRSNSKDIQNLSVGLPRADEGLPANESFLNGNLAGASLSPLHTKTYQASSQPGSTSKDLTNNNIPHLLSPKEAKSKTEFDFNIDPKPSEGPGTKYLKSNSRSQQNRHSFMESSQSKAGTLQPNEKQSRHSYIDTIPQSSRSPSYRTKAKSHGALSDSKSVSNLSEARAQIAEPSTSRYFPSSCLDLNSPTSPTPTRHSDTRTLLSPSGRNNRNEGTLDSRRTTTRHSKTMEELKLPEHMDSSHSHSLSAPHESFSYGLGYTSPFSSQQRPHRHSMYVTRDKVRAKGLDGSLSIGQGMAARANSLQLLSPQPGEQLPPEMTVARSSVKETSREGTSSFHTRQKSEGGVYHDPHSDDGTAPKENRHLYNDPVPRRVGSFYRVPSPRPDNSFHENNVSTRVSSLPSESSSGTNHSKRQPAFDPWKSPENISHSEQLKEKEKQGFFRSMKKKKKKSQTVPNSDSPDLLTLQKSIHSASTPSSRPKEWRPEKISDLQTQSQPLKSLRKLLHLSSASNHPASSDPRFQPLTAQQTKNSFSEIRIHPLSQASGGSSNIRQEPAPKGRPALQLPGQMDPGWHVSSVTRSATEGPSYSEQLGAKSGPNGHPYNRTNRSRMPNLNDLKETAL
Experiment: KINOMEscan competition binding
Details: compound 10.0 µM
measurement-type: kinase still bound, per cent of control (%)

The following molecules have reported results that may help.
* COc1ccc(CNC(=O)Nc2ncc([N+](=O)[O-])s2)cc1 | 100
* Cc1cnc(-c2cnc(NCCNc3ccc(C#N)cn3)nc2-c2ccc(Cl)cc2Cl)[nH]1 | 100

(I) O=C1Nc2cc(Br)ccc2/C1=C1/Nc2ccccc2/C1=N\O
(II) Cn1cc(C2=C(c3ccc(Cl)cc3Cl)C(=O)NC2=O)c2ccccc21
I need your help: which of the pair I , II has higher kinase still bound, per cent of control? Please respond with the label that marks your chosen entry.
II

---

Target: MYLK4 (human) (UniProt Q86YV6)
Sequence (Q86YV6 whole entry, looked up): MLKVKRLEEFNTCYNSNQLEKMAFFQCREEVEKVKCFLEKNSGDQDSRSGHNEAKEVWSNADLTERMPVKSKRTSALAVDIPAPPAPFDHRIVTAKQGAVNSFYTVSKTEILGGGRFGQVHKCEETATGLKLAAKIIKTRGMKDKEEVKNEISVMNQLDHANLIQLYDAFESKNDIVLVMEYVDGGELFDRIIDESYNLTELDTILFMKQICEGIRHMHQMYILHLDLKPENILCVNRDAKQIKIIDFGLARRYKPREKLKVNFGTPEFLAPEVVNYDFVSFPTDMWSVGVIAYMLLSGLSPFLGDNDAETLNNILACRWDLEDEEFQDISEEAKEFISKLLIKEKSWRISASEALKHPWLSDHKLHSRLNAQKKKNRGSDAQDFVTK
Assay: KINOMEscan competition binding
Details: compound 10.0 µM
measurement-type: kinase still bound, per cent of control (%)

• O=C1Nc2cc(Br)ccc2/C1=C1/Nc2ccccc2/C1=N\O = 7.3
• COc1ccc(CNC(=O)Nc2ncc([N+](=O)[O-])s2)cc1 = 91

(I) Cc1cnc(-c2cnc(NCCNc3ccc(C#N)cn3)nc2-c2ccc(Cl)cc2Cl)[nH]1
(II) Cn1cc(C2=C(c3ccc(Cl)cc3Cl)C(=O)NC2=O)c2ccccc21
Input pair: I , II . Output: entry with lower kinase still bound, per cent of control. Please respond with the label that marks your chosen entry.
II
(II: 38%, I: 98%)

---

Biological target: UniProt Q9UBF8
Sequence (Q9UBF8 whole entry, looked up): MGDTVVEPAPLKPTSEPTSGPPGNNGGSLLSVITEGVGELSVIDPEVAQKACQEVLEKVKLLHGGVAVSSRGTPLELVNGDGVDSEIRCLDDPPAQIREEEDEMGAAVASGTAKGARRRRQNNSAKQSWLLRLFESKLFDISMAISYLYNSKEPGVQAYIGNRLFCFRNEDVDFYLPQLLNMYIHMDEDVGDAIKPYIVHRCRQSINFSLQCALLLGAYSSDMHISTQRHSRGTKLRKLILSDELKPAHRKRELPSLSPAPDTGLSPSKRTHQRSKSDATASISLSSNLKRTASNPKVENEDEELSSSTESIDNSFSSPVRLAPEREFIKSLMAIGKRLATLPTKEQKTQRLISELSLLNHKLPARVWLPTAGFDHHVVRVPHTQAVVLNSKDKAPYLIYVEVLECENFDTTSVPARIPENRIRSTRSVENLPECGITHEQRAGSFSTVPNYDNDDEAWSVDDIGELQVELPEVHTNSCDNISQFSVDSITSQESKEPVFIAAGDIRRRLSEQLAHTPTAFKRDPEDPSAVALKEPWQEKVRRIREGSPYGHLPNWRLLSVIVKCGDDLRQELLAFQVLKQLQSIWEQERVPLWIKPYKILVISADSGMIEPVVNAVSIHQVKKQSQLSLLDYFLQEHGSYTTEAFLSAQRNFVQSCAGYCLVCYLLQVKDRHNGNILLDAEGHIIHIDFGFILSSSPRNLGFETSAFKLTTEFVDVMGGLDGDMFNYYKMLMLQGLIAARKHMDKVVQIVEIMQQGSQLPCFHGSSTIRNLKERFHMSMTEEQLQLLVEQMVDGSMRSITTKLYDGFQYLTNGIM
Assay: KINOMEscan competition binding
Conditions: compound 10.0 µM
measurement-type: kinase still bound, per cent of control (%)

The following compounds have reported results that may help.
- Cn1cc(C2=C(c3ccc(Cl)cc3Cl)C(=O)NC2=O)c2ccccc21: 94
- Cc1cnc(-c2cnc(NCCNc3ccc(C#N)cn3)nc2-c2ccc(Cl)cc2Cl)[nH]1: 93

(I) O=C1Nc2cc(Br)ccc2/C1=C1/Nc2ccccc2/C1=N\O
(II) COc1ccc(CNC(=O)Nc2ncc([N+](=O)[O-])s2)cc1
Input pair: I , II . Output: entry with lower kinase still bound, per cent of control. Please respond with the label that marks your chosen entry.
I
(I: 39%, II: 100%)

---

Molecular target: TYK2 JH2 pseudokinase (human) (UniProt P29597)
Assay: KINOMEscan competition binding
Details: compound 10.0 µM
measurement-type: kinase still bound, per cent of control (%)

- COc1ccc(CNC(=O)Nc2ncc([N+](=O)[O-])s2)cc1: 66

(a) Cn1cc(C2=C(c3ccc(Cl)cc3Cl)C(=O)NC2=O)c2ccccc21
(b) Cc1cnc(-c2cnc(NCCNc3ccc(C#N)cn3)nc2-c2ccc(Cl)cc2Cl)[nH]1
I need your help: which of the pair a , b has higher kinase still bound, per cent of control? Please respond with the label that marks your chosen entry.
b
(b: 68%, a: 32%)

---

Test system: FLT3 (human), P36888 [D835Y]
Assay: KINOMEscan competition binding
Details: compound 10.0 µM
measurement-type: kinase still bound, per cent of control (%)

(1) COc1ccc(CNC(=O)Nc2ncc([N+](=O)[O-])s2)cc1
(2) Cc1cnc(-c2cnc(NCCNc3ccc(C#N)cn3)nc2-c2ccc(Cl)cc2Cl)[nH]1
(3) O=C1Nc2cc(Br)ccc2/C1=C1/Nc2ccccc2/C1=N\O
(4) Cn1cc(C2=C(c3ccc(Cl)cc3Cl)C(=O)NC2=O)c2ccccc21
Order them by kinase still bound, per cent of control, ascending: the compounds above. To answer, write out the labels according to the requested order.
3, 4, 2, 1
(3: 0%, 4: 16%, 2: 46%, 1: 86%)

---

Target: UniProtKB Q5VT25
Experiment: KINOMEscan competition binding
Details: compound 10.0 µM
measurement-type: kinase still bound, per cent of control (%)

The following compounds have reported results that may help.
- COc1ccc(CNC(=O)Nc2ncc([N+](=O)[O-])s2)cc1: 100
- Cc1cnc(-c2cnc(NCCNc3ccc(C#N)cn3)nc2-c2ccc(Cl)cc2Cl)[nH]1: 100

(P) Cn1cc(C2=C(c3ccc(Cl)cc3Cl)C(=O)NC2=O)c2ccccc21
(Q) O=C1Nc2cc(Br)ccc2/C1=C1/Nc2ccccc2/C1=N\O
Input pair: P , Q . Output: entry with lower kinase still bound, per cent of control. Please respond with the label that marks your chosen entry.
Q
(Q: 70%, P: 100%)

---

Biological target: SBK1 (human)
Assay: KINOMEscan competition binding
Conditions: compound 10.0 µM
measurement-type: kinase still bound, per cent of control (%)

The following compounds have reported results that may help.
* Cc1cnc(-c2cnc(NCCNc3ccc(C#N)cn3)nc2-c2ccc(Cl)cc2Cl)[nH]1 | 100
* COc1ccc(CNC(=O)Nc2ncc([N+](=O)[O-])s2)cc1 | 100

(I) Cn1cc(C2=C(c3ccc(Cl)cc3Cl)C(=O)NC2=O)c2ccccc21
(II) O=C1Nc2cc(Br)ccc2/C1=C1/Nc2ccccc2/C1=N\O
I need your help: which of the pair I , II has higher kinase still bound, per cent of control? Please respond with the label that marks your chosen entry.
I

---

Molecular target: ACVR2B (human) (UniProt Q13705)
Sequence (Q13705 whole entry, looked up): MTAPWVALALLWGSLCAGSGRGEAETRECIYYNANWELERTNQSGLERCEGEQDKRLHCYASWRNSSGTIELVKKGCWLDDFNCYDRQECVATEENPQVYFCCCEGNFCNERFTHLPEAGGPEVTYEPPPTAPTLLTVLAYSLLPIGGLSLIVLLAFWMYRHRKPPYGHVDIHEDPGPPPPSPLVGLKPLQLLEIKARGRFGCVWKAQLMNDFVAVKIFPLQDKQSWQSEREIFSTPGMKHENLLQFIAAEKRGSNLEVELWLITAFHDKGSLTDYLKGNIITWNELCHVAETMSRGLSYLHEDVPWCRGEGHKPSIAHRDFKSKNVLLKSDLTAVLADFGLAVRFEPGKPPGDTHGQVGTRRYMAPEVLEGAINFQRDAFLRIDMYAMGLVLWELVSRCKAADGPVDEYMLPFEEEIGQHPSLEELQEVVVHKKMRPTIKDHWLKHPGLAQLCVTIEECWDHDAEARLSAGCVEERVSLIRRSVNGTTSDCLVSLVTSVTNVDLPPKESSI
Assay: KINOMEscan competition binding
Conditions: compound 10.0 µM
measurement-type: kinase still bound, per cent of control (%)

• COc1ccc(CNC(=O)Nc2ncc([N+](=O)[O-])s2)cc1 = 100
• Cn1cc(C2=C(c3ccc(Cl)cc3Cl)C(=O)NC2=O)c2ccccc21 = 100

(1) Cc1cnc(-c2cnc(NCCNc3ccc(C#N)cn3)nc2-c2ccc(Cl)cc2Cl)[nH]1
(2) O=C1Nc2cc(Br)ccc2/C1=C1/Nc2ccccc2/C1=N\O
I need your help: which of the pair 1 , 2 has higher kinase still bound, per cent of control? Please respond with the label that marks your chosen entry.
1
